# test-system: baculovirus-expressed ALK (Homo sapiens)
# Construct: host or cells: baculovirus expression system
# Sequence (Q9UM73 19-1620): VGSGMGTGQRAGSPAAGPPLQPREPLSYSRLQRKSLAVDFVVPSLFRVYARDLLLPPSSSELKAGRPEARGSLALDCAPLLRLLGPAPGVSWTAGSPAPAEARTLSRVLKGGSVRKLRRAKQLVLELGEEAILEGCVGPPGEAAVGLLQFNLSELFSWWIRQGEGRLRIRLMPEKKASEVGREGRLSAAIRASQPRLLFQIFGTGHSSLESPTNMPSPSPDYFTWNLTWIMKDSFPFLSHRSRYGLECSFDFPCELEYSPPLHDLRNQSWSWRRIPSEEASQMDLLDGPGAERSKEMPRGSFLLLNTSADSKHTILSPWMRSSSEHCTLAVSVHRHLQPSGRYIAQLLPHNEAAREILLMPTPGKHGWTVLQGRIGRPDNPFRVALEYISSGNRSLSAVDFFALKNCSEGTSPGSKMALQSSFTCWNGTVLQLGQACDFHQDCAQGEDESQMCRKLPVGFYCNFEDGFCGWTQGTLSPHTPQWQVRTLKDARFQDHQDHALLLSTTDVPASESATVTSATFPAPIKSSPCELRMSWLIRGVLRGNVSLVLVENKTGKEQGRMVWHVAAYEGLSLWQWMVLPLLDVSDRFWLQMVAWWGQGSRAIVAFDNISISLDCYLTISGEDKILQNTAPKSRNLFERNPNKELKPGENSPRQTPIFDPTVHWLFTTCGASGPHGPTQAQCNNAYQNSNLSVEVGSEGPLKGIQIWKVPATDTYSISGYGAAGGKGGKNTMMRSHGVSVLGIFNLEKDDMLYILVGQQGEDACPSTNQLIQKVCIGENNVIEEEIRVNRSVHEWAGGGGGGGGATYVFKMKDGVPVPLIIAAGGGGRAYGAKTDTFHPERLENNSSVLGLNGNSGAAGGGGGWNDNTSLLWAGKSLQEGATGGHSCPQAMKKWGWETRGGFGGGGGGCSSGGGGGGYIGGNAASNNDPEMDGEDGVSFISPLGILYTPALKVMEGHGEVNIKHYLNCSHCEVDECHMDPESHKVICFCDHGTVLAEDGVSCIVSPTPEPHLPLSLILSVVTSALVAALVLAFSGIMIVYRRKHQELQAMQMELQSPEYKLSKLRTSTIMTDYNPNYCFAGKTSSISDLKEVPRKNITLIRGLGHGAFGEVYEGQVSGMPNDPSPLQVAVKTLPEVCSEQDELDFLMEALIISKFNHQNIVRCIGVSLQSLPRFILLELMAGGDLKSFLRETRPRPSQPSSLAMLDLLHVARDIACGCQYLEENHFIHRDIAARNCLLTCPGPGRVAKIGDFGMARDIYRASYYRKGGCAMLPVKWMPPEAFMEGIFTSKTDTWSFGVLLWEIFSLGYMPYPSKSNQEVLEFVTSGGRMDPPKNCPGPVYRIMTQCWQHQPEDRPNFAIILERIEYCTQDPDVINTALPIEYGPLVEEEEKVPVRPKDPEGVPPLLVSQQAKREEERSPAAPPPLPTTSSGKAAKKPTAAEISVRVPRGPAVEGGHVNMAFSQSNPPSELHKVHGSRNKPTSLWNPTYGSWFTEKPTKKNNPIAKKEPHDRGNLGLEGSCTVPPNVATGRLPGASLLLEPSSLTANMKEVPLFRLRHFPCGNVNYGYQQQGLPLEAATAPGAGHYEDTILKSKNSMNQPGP
# procedure-summary: ALK Kinase Assay (ELISA-type, time-resolved fluorescence)
# Type: biochemical
# experimental-parameters: 1 μM ATP (Km level); read-out: ALK Activity (ALK Kinase Inhibition, IC50)
readout-name: IC50

compound | data-value
CCN1CCN(CC)c2cc(Nc3ncc(Cl)c(Nc4ccccc4S(=O)(=O)N(C)C)n3)ccc2C1 | < 100 nM
CN1CCN(C2CCN(C3CCc4ccc(Nc5ncc(Cl)c(N[C@@H]6CCCC[C@H]6NS(C)(=O)=O)n5)cc4CC3)CC2)CC1 (stereo partly shown) | < 100 nM
COc1c(Nc2ncc(Cl)c(N[C@H]3[C@@H](C(N)=O)[C@@H]4C=C[C@H]3C4)n2)ccc2c1CCC(N1CCCC(O)C1)CC2 (stereo partly shown) [Example 909] | < 100 nM
CCNC(=O)c1ccccc1Nc1nc(Nc2ccc3c(c2)CCC(N2CCOCC2)CC3)ncc1Cl (stereo not shown) | < 100 nM
COc1ccc(Nc2nc(Nc3ccc4c(c3)CCC(O)CC4)ncc2Cl)c2c1CN(C)C2=O (stereo not shown) | 100 to 1000 nM

Q: Tell me the measured IC50 of `CCNC(=O)c1cccc(F)c1Nc1nc(Nc2cc3c(cc2OC)CCN(CC(C)(F)F)CC3)ncc1Cl` , please.
A: < 100 nM

Q: What do we get for `CN1CCN(C[C@@H](O)C(F)(F)F)Cc2cc(OCC(F)(F)F)c(Nc3ncc(Cl)c(N[C@@H]4CCCC[C@H]4NS(C)(=O)=O)n3)cc21` ?
A: 100 to 1000 nM

These measurements were taken from patent US8148391B2.
